In this section, each of the compounds is paired with its reported solubility kinetic.
measurement.parameters: buffer; pH 7.4; 200.0 µM

Worked cases, solubility kinetic given:
Cl.N[C@@H]1C[C@H]1c1ccccc1 > 25.4 µg/mL
Cc1ccc(NC(=O)CN(C)C(=O)/C=C/c2ccc3c(c2)OCO3)cc1 6.8 µg/mL
CCn1c(C)c(C(=O)c2ccccc2)c(C#N)c1C(=O)O 36.6 µg/mL

Note: attention shifts to another entry.
## Task Give recorded solubility kinetic. `O=C(CS(=O)(=O)Cc1ccccc1)NCc1ccccc1Cl`
## Result > 50.7 µg/mL

---

measurement.parameters: buffer; pH 7.4; 200.0 µM
measured.attribute: solubility kinetic

Worked cases, solubility kinetic given:
compound	solubility kinetic
O=C(Nc1ccccc1F)c1cnccn1	> 32.6 µg/mL
COc1ccc(CNC(=O)c2cccnc2)cc1	> 36.3 µg/mL
Cc1ccc2c(C(=O)CN3CCCC(C)C3)c(C)[nH]c2c1 (stereo unspecified)	39.3 µg/mL

## Task Give recorded solubility kinetic. O=C1NCC(COc2ccc(Cl)cc2)O1 (stereo unspecified)
## Result > 34.1 µg/mL

## Task Give recorded solubility kinetic. `COc1ccc(/C=C2\C(=O)ON=C2c2ccccc2)cc1`
## Result 39.1 µg/mL

## Task Give recorded solubility kinetic. `CCSc1ccc(C(=O)NCC(=O)O)cc1`
## Result > 35.9 µg/mL

---

measurement.parameters: buffer; pH 7.4; 200.0 µM
In this section, each of the compounds is paired with its reported solubility kinetic.

Worked cases, solubility kinetic given:
compound	solubility kinetic
CC(=O)NNc1cc(C)nc(N)n1	> 27.2 µg/mL
O=C(Nc1ccc(F)cc1F)c1cc2ccccc2oc1=O	< 0.6 µg/mL
Cc1nc(CNS(=O)(=O)c2ccc(F)cc2)cs1	> 43 µg/mL

## Task Give recorded solubility kinetic. `CC(=O)Nc1ccc(C=C(C(C)=O)C(C)=O)cc1`
## Result > 36.8 µg/mL

## Task Give recorded solubility kinetic. `CCOc1ccccc1NC(=O)c1cnccn1`
## Result > 36.5 µg/mL

## Task Give recorded solubility kinetic. `COc1ccccc1CC(=O)N1CCN(CCc2ccccc2)CC1`
## Result > 50.8 µg/mL

## Task Give recorded solubility kinetic. Cc1nn2c(nc1=O)NNC2(C)C(C)(C)C (configuration not stated)
## Result > 33.5 µg/mL

## Task Give recorded solubility kinetic. `O=C(CSc1ncnc2ccccc12)NCCc1ccccc1`
## Result > 48.5 µg/mL

## Task Give recorded solubility kinetic. `Cc1cc(-c2ccccc2)n2ncnc2n1`
## Result > 31.5 µg/mL

## Task Give recorded solubility kinetic. `O=C(NCCCn1ccnc1)c1ccc(Cl)cc1`
## Result > 39.6 µg/mL

## Task Give recorded solubility kinetic. `COc1cccc(CNC(=O)COC(=O)c2nn(C)c(=O)c3ccccc23)c1`
## Result > 57.2 µg/mL

## Task Give recorded solubility kinetic. `CCOC(=O)CN1C(=O)C(=O)N(Cc2cccc(C)c2)C1=O`
## Result > 45.6 µg/mL

---

In this section, each of the compounds is paired with its reported solubility kinetic.
measurement.parameters: buffer; pH 7.4; 200.0 µM

compound	solubility kinetic
COCc1nnc(NC(=O)c2cc3ccccc3o2)s1	> 43.4 µg/mL
CC(=O)Nc1ccc(NS(=O)(=O)c2cccc3nonc23)cc1	> 49.8 µg/mL
CCN(/C=N/S(=O)(=O)c1ccc(Cl)cc1)CC	> 41.2 µg/mL
CSCCC(NC(=O)c1ccco1)C(=O)NNC(=O)c1n[nH]c(=O)c2ccccc12 (configuration not stated)	> 64.4 µg/mL
CN(C)C(=O)Oc1ccnc2cc(Cl)ccc12	> 37.6 µg/mL

## Task Give recorded solubility kinetic. `CCSc1nnc(SCC(=O)NC2CCCCC2)s1`
## Result > 47.6 µg/mL

## Task Give recorded solubility kinetic. `Cn1c(=O)c2c(nc(NN=C3CCCC3)n2C)n(C)c1=O`
## Result > 43.5 µg/mL
